microsomal stability Cl [% Qh] for assorted molecules
Assay: Human Liver Microsomal Stability Test
Type: in vitro ADME
Conditions: human liver microsomes; percent hepatic blood flow

Past entries and their recorded results:
C[C@@H](Oc1cc(-c2ccc(C3CCN(C)CC3)cc2)cc2nn(C)cc12)[C@H]1CNC(=O)C1: <23 % Qh
C[C@@H](Oc1nc(-c2ccc(C(F)(F)F)nc2)cc2nn(C)cc12)[C@H]1CNC(=O)C1: <23 % Qh
C[C@@H](Oc1nc(-c2ccc(N3CCOCC3)nc2)cc2ncccc12)[C@H]1CNC(=O)C1: 53 % Qh

Query :: Entry under review: C[C@@H](Oc1cc(-c2ccc(CN3CCOCC3)cc2)cc2ncccc12)[C@H]1CNC(=O)C1 . Reported microsomal stability Cl [% Qh]?
Result :: <23 % Qh

Query :: Entry under review: C[C@@H](Oc1nc(-c2ccc(N3CCN(C)CC3)cc2)cc2nn(C)cc12)[C@H]1CNC(=O)C1 . Reported microsomal stability Cl [% Qh]?
Result :: 34 % Qh

Query :: Entry under review: COc1ccc(-c2cc3nn(C)cc3c(O[C@H](C)[C@H]3CNC(=O)C3)n2)cn1 . Reported microsomal stability Cl [% Qh]?
Result :: <23 % Qh

Query :: Entry under review: C[C@@H](Oc1cc(-c2ccc3c(c2)CNCC3)cc2ncccc12)[C@H]1CNC(=O)C1 . Reported microsomal stability Cl [% Qh]?
Result :: <23 % Qh

###

Experiment: Human Liver Microsomal Stability Test
Format: in vitro ADME
Settings: human liver microsomes; comparison compounds, Example numbers of WO 2013/014060
Description: The metabolic degradation for a specific SYK-inhibitor is performed at 37° C. with pooled human liver microsomes (human liver microsomes are commercially available as “BD UltraPool™” by Corning Life Sciences, Fogostraat 12, 1060 LJ Amsterdam, The Netherlands). […] An aliquot of the supernatant is assayed by LC-MS/MS for the remaining amount of parent compound. The half-life (t½ INVITRO) is determined by the slope of the semilogarithmic plot of the concentration-time profile. […]
Threshold 50 % Qh: microsomal stability Cl [% Qh] strictly smaller gives Fulfilled, otherwise Not fulfilled.

Solved entries:
C[C@@H](Oc1nc(-c2cnn(C(C)(C)C)c2)cc2nn(C)cc12)[C@H]1CNC(=O)C1 [Example 2]: Not fulfilled
COc1cc(-c2cc(O[C@H](C)[C@H]3CNC(=O)C3)c3cccnc3c2)ccc1C(F)(F)F [compound 102]: Not fulfilled
C[C@@H](Oc1nc(-c2ccc(C(F)(F)F)nc2)cc2nn(C)cc12)[C@H]1CNC(=O)C1 [Example 61]: Fulfilled

Query :: Does this compound meet the criterion microsomal stability Cl [% Qh] < 50 % Qh? COc1cc(-c2cc3nn(C)cc3c(O[C@H](C)[C@H]3CNC(=O)C3)n2)ccc1OC(C)C [Example 81]
Result :: Fulfilled

Query :: Does this compound meet the criterion microsomal stability Cl [% Qh] < 50 % Qh? Cc1nc2cc(-c3cc(O[C@H](C)[C@H]4CNC(=O)C4)c4cccnc4c3)ccc2n1C [compound 105]
Result :: Not fulfilled

Query :: Does this compound meet the criterion microsomal stability Cl [% Qh] < 50 % Qh? C[C@@H](Oc1cc(-c2ccc(F)cn2)cc2nn(C)cc12)[C@H]1CNC(=O)C1 [Example 41]
Result :: Fulfilled

Query :: Does this compound meet the criterion microsomal stability Cl [% Qh] < 50 % Qh? CCCn1cc(-c2cc(O[C@H](C)[C@H]3CNC(=O)C3)c3cccnc3c2)cn1 [compound 114]
Result :: Fulfilled

Values were extracted from patent US10947243B2.
